- measured-on: PAR2 (HT-29 cells) (Homo sapiens)
- Construct: host or cells: HT-29
- Sequence (P55085 26-397): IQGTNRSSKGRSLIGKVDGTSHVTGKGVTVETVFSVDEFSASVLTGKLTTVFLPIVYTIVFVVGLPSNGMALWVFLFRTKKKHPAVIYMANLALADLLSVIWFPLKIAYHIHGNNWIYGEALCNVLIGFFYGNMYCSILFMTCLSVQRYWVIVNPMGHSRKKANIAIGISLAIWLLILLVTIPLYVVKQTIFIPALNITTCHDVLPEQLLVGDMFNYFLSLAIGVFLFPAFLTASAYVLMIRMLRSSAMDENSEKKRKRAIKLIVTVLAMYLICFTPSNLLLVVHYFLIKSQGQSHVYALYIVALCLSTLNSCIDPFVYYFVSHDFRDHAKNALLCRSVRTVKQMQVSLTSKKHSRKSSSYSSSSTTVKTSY
- assay-method-text: Ca FLIPR TETRA assay, ANTAGONIST mode, activator 3.1 U/mL trypsin
- Type: cell-based
- setup-conditions: HT-29 cells; activator 3.1 U/mL trypsin; Method A: maximal concentration of antagonist 0.1, 1 or 2 μM
pIC50: −log10 of the molar value.
We use 9 as the dividing line for pIC50: on or above the line is 1 (yes), below is 0 (no).

Prompt: Would you say CC(C)(C)c1cc(C2CC3(CCC3)C2)nc2cc(C(=O)N3CCN(C(=O)[C@@H]4CNCCO4)CC3(C)C)oc12 shows pIC50 at minimum 9?
Completion: 0 (no)

Prompt: Hello, I need to know if CC1(C)CCC(c2cc(C(C)(C)C)c3oc(C(=O)N4CCNC(=O)CC4(C)C)cc3n2)CC1 has measured pIC50 not below 9. Thanks!
Completion: 0 (no)

Prompt: Test whether the molecule Cc1nc(N2CCN(C(=O)c3cc4nc(-c5ccc(Cl)c(F)c5)cc(C(C)(C)C)c4o3)C(C)(C)C2)ccc1C(=O)O records pIC50 of 9 or higher.
Completion: 1 (yes)

Prompt: Confirm if pIC50 reported for the molecule CC(C)(C)c1cc(-c2ccc(Cl)c(F)c2)nc2cc(C(=O)N3CCN(c4ccc(F)c(C(=O)O)n4)CC3(C)C)oc12 is 9 or above.
Completion: 0 (no)

Prompt: Could you tell me if the measured pIC50 of Cc1cc(C(=O)O)nc(N2CCN(C(=O)c3cc4nc(-c5ccc(Cl)cc5)cc(C(C)(C)C)c4o3)C(C)(C)C2)n1 reaches 9 or more?
Completion: 1 (yes)

Data origin: patent US20180057505A1
